The reported numbers originate from patent US20250228835A1.

- testedSystem: ABCA4 P1380L (Homo sapiens, UniProt P78363, P1380L)
- Construct: expressed in transfected cells
- Sequence (P78363 whole entry P1380L): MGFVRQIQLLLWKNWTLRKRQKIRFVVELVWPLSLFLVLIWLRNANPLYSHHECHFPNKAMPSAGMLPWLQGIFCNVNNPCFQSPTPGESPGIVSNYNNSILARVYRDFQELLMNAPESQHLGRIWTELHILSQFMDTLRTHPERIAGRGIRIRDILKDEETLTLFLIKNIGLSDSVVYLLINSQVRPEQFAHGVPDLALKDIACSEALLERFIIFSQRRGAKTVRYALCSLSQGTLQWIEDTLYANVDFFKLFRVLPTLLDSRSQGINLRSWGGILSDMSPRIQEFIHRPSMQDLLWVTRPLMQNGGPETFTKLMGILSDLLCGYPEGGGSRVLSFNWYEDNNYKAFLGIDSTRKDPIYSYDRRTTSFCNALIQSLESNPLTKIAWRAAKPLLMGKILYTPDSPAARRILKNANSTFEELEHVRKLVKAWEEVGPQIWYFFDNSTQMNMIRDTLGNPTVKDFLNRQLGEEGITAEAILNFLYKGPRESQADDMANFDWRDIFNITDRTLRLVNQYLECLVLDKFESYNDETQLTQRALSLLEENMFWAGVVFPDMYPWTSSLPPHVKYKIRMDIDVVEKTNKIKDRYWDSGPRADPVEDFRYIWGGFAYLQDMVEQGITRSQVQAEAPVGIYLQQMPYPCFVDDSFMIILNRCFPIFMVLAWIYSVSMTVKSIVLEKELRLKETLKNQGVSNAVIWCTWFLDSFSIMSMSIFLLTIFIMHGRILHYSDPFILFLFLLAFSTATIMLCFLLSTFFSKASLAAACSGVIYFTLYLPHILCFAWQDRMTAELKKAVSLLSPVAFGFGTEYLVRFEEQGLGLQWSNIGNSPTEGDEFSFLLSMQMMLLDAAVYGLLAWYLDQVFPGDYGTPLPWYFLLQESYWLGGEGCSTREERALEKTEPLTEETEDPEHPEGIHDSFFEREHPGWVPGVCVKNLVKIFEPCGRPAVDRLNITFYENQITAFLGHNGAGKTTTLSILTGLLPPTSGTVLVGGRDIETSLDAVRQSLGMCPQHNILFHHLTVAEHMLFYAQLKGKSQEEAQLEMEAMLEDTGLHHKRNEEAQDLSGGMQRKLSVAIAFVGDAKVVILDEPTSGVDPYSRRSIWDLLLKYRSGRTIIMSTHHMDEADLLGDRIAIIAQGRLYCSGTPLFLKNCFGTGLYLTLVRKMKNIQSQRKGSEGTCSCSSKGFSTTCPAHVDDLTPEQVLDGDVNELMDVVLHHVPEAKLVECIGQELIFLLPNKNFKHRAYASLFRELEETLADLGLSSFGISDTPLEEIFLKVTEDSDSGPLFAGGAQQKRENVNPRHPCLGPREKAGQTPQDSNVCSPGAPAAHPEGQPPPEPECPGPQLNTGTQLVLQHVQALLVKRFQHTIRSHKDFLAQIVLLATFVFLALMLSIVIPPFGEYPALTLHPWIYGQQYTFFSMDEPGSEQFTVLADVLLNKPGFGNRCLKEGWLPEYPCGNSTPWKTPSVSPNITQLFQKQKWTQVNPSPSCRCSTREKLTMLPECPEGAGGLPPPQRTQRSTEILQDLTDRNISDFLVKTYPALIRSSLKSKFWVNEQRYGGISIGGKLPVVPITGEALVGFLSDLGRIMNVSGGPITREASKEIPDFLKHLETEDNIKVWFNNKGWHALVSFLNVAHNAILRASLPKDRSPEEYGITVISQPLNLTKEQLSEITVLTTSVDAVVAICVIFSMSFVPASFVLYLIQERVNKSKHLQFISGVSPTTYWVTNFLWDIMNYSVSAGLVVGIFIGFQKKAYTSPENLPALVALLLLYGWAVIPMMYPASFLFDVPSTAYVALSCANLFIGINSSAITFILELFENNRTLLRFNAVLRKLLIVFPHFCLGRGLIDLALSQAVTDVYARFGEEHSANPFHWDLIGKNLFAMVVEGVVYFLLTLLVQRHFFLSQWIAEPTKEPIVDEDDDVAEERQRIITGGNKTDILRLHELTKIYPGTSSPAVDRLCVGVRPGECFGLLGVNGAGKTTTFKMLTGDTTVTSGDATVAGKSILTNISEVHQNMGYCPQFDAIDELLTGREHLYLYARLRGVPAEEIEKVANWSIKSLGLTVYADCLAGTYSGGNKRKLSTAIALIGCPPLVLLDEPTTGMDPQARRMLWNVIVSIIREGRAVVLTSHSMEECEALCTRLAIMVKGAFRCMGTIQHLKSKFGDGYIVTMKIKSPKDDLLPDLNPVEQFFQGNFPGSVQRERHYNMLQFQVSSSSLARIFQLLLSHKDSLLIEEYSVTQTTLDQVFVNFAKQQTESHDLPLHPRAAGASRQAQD
- testProtocol: A4 correction dose-response assay: ABCA4 P1380L HiBit protein expression
- Format: cell-based
- experimentalSetup: HEK-293 cells stably expressing HiBit-tagged ABCA4 P1380L; 24 h treatment; top concentration 30 μM; read-out: ABCA4 P1380L EC50, Emax
pEC50: −log10 of the molar value.
measurementType: pEC50

Tested system ABCA4 P1380L (Homo sapiens, UniProt P78363, P1380L); pEC50 recorded for Cc1cc(C)c(Oc2nc(N3CCN(C(=O)C(C)(C)C)CC3)ccc2NS(C)(=O)=O)c(C)c1 [Compound I-34] was 4.60 to 5.00

Tested system ABCA4 P1380L (Homo sapiens, UniProt P78363, P1380L); pEC50 recorded for Cc1cc(C(F)F)nc(C)c1Oc1nc(-c2ccnc(C#N)c2)ccc1NS(C)(=O)=O [Compound I-204] was > 6.00

Tested system ABCA4 P1380L (Homo sapiens, UniProt P78363, P1380L); pEC50 recorded for Cc1nc(C(F)(F)F)nc(C2CC2)c1Oc1nc(-c2cncc(C#N)c2)ccc1NS(C)(=O)=O [Compound I-145] was > 6.00

Tested system ABCA4 P1380L (Homo sapiens, UniProt P78363, P1380L); pEC50 recorded for Cc1cc(C(F)F)nc(C2CC2)c1Oc1nc(-c2cncc(C#N)c2)ccc1S(=O)(=O)NC1CCOCC1 [Compound I-320] was > 4.60

Tested system ABCA4 P1380L (Homo sapiens, UniProt P78363, P1380L); pEC50 recorded for COC1CC(NS(=O)(=O)c2ccc(-c3cncc(Cl)c3)nc2Oc2c(C)cc(C)cc2C2CC2)C1 (stereo not shown) [Compound I-74] was 5.00 to 6.00

Tested system ABCA4 P1380L (Homo sapiens, UniProt P78363, P1380L); pEC50 recorded for Cc1cc(C)c(Oc2nc(-c3cncc(C#N)c3)ccc2NS(=O)(=O)C2(C)CC2)c(C)n1 [Compound I-172] was > 6.00

Tested system ABCA4 P1380L (Homo sapiens, UniProt P78363, P1380L); pEC50 recorded for Cc1nc(C2CC2)c(C(F)(F)F)cc1Oc1nc(-c2cncc(C#N)c2)ccc1NS(C)(=O)=O [Compound I-184] was > 6.00
